Assay: Toxicity in Thamnocephalus platyurus after 24 hrs by acute toxicity assay
Type: organism-based
Details: in vivo
recorded_metric: LC50 at 24 h (µM)
A number alone suffices; assume µM.

Requested read-out: LC50 at 24 h. Entry: CCCCCC(=O)N[C@@H](CCC(=O)O)C(=O)N[C@@H]1C(=O)N[C@@H](CCCNC(=N)N)C(=O)N[C@H]2CC[C@@H](O)N(C2=O)[C@@H](Cc2ccccc2)C(=O)N(C)[C@@H](Cc2ccc(O)cc2)C(=O)N[C@@H](C(C)C)C(=O)O[C@@H]1C [CYANOPEPTOLIN 1020] 8.8
